- experiment: n-octanol-KCl distribution coefficient, log D of the compound at pH 7.4
- Format: physicochemical
Measured logD by item
Hey, just send me the number, nothing else.

{"itemSmiles": "Fc1ccc(-c2nc(CNc3ccnc4cc(Cl)ccc34)[nH]c2CN2CCCC2)cc1", "reportedValue": 4.77}
{"itemSmiles": "Clc1ccc2c(Nc3ccc(CN4CCCC4)s3)ccnc2c1", "reportedValue": 2.98}
{"itemSmiles": "Clc1ccc2c(NCc3ccc(CN4CCCC4)s3)ccnc2c1", "reportedValue": 2.77}
{"itemSmiles": "Clc1ccc2c(NCc3nc(-c4ccc(N5CCCC5)cc4)c[nH]3)ccnc2c1", "reportedValue": 8.53}
{"itemSmiles": "Clc1ccc(-c2c[nH]c(CNc3ccnc4cc(Cl)ccc34)n2)cc1", "reportedValue": 5.1}
{"itemSmiles": "Clc1ccc2c(NCc3nc(-c4ccccc4)co3)ccnc2c1", "reportedValue": 4.81}

Entry Cn1c(CNc2ccnc3cc(Cl)ccc23)nc(-c2ccccc2)c1CN1CCCC1 , logD reported as 7.57

The compound identified as Clc1ccc(-c2nc(CNc3ccnc4cc(Cl)ccc34)[nH]c2CN2CCCC2)cc1 registered its logD at 4.63

Clc1ccc2c(NCc3nc(-c4ccccc4)c[nH]3)ccnc2c1 has a reported logD of 4.62

logD reported for this compound Clc1ccc2c(NCc3nc(-c4ccccc4)cs3)ccnc2c1 : 5.15

Reported logD of Cn1cc(-c2ccccc2)nc1CNc1ccnc2cc(Cl)ccc12 : 4.57

----------
- experiment: Resistance index, ratio of IC50 for chloroquine-resistant Plasmodium falciparum W2 to IC50 for chloroquine-sensitive Plasmodium falciparum D10
- Type: functional
Just a reminder that ties go to 0: only Ratio IC50 strictly below 2 counts as 1.

{"itemSmiles": "CN(C)c1cccc(-c2c[nH]c(CNc3ccnc4cc(Cl)ccc34)n2)c1", "classLabel": 1}
{"itemSmiles": "CCN(CC)Cc1ccc(Nc2ccnc3cc(Cl)ccc23)s1", "classLabel": 1}
{"itemSmiles": "Clc1ccc2c(NCc3nc(-c4ccccc4)c(CN4CCCC4)[nH]3)ccnc2c1", "classLabel": 0}
{"itemSmiles": "Clc1ccc2c(NCc3nc(-c4ccccc4)cs3)ccnc2c1", "classLabel": 1}
{"itemSmiles": "CN(C)c1ccc(-c2c[nH]c(CNc3ccnc4cc(Cl)ccc34)n2)cc1", "classLabel": 1}

Now examine the next entry.
Challenge: Could you please tell me whether Ratio IC50 recorded for Cn1cc(-c2ccccc2)nc1CNc1ccnc2cc(Cl)ccc12 is less than 2?
Response given: 0

----------
- experiment: Dissociation constant, pKa of the compound
- Type: physicochemical
Measured pKa by item

{"itemSmiles": "Clc1ccc2c(NCc3nc(-c4ccccc4)co3)ccnc2c1", "pKa": 6.36}

Okay, now this compound:
Record Clc1ccc2c(NCc3nc(-c4ccccc4)cs3)ccnc2c1 . Reported pKa: 6.45

----------
- experiment: Lipophilicity, log P of the compound at pH 7.4
- Type: physicochemical
- conditionParameters: buffer, read-out: logP
I'd appreciate it if you marked entries 1 when logP is lower than 6 and 0 when it is not.

{"itemSmiles": "Cc1ccc(-c2c[nH]c(CNc3ccnc4cc(Cl)ccc34)n2)cc1", "classLabel": 1}

Challenge: Say whether its logP is strictly beneath 6. Entry: Cn1cc(-c2ccccc2)nc1CNc1ccnc2cc(Cl)ccc12
Response given: 1

Challenge: Below 6 on logP? Entry Clc1ccc(-c2c[nH]c(CNc3ccnc4cc(Cl)ccc34)n2)cc1
Response given: 1

Challenge: # strict comparison: is reported logP < 6? input = Clc1ccc2c(NCc3nc(-c4ccccc4)co3)ccnc2c1
Response given: 1

Challenge: Bench note: check whether Clc1ccc2c(NCc3nc(-c4ccccc4)cs3)ccnc2c1 shows logP below 6
Response given: 1

Challenge: Determine whether this molecule shows logP lower than 6 (ties excluded): Clc1ccc2c(NCc3ncc(CN4CCCC4)[nH]3)ccnc2c1
Response given: 1

Challenge: Lab note: logP threshold 6. Does this molecule come in strictly under it? Clc1ccc2c(Nc3ccc(CN4CCCC4)s3)ccnc2c1
Response given: 1

Challenge: Could you please tell me whether logP recorded for CN(C)c1ccc(-c2c[nH]c(CNc3ccnc4cc(Cl)ccc34)n2)cc1 is less than 6?
Response given: 1

Challenge: Threshold test, logP < 6: Clc1ccc(-c2nc(CNc3ccnc4cc(Cl)ccc34)[nH]c2CN2CCCC2)cc1
Response given: 0

Challenge: Strictly below 6 in logP? Fc1ccc(-c2c[nH]c(CNc3ccnc4cc(Cl)ccc34)n2)cc1
Response given: 1

Challenge: Is logP strictly under 6 for the entry Clc1ccc2c(NCc3nc(-c4ccccc4)c(CN4CCCC4)[nH]3)ccnc2c1 ?
Response given: 0

Challenge: Lab note: confirm whether the reported logP for this molecule is below 6, equality not counting. molecule: Clc1ccc2c(NCc3ccc(CN4CCCC4)s3)ccnc2c1
Response given: 1

Challenge: Please indicate whether the reported logP of Clc1ccc2c(NCc3nc(-c4ccc(N5CCCC5)cc4)c[nH]3)ccnc2c1 is strictly below 6.
Response given: 0

Challenge: Input Clc1ccc2c(NCc3ncc[nH]3)ccnc2c1 ; condition: logP strictly below 6. Does it hold?
Response given: 1

Challenge: Hello, I'm reviewing records and need to know if logP of Clc1ccc2c(NCc3nc(-c4ccccc4)c(CN4CCCC4)s3)ccnc2c1 is below 6. Could you check?
Response given: 0
